pIC50: −log10 of the molar value.
Reported pIC50 values, Pf plasmepsin II (PM-II) (Plasmodium falciparum, UniProt Q8I6V3).

input: Find pIC50 (Pf plasmepsin II (PM-II) (Plasmodium falciparum, UniProt Q8I6V3)) for the entry CN(C)c1ccc(CNC(=O)[C@@H]2CNC[C@H]2c2ccc(C(F)(F)F)c(Cl)c2)cc1
output: < 5.00

input: Find pIC50 (Pf plasmepsin II (PM-II) (Plasmodium falciparum, UniProt Q8I6V3)) for the entry CN(C)c1ccc(CNC(=O)[C@H]2CNC[C@@H]2c2ccc(C(F)(F)F)cc2)cc1
output: < 5.00

input: Find pIC50 (Pf plasmepsin II (PM-II) (Plasmodium falciparum, UniProt Q8I6V3)) for the entry CN(C)c1ccc(CNC(=O)[C@@H]2CNC[C@H]2c2ccc(C(F)(F)F)c(F)c2)cc1
output: < 5.00

input: Find pIC50 (Pf plasmepsin II (PM-II) (Plasmodium falciparum, UniProt Q8I6V3)) for the entry CN(C)c1ccc(CNC(=O)[C@H]2CNC[C@@H]2c2ccc(C(F)(F)F)nc2)cc1 (racemic)
output: < 5.00

input: Find pIC50 (Pf plasmepsin II (PM-II) (Plasmodium falciparum, UniProt Q8I6V3)) for the entry Cc1ccc(CNC(=O)[C@@H]2CNC[C@H]2c2ccc(C(F)(F)F)cc2)cc1
output: < 5.00

input: Find pIC50 (Pf plasmepsin II (PM-II) (Plasmodium falciparum, UniProt Q8I6V3)) for the entry CN(C)c1ccc(CNC(=O)[C@@H]2CNC[C@H]2c2ccc(Oc3ccccc3)cc2)cc1
output: < 5.00

input: Find pIC50 (Pf plasmepsin II (PM-II) (Plasmodium falciparum, UniProt Q8I6V3)) for the entry CCN(CC)c1ccc(CNC(=O)[C@@H]2CNC[C@H]2c2ccc(C(F)(F)F)cc2)cc1
output: < 5.00
